Provide the reported IC50 of each item.
# tested.system: STAT3 (Homo sapiens, UniProt P40763)
# Construct: plasmid pSTAT3-TA-luc), which contains a stably operating STAT3 promoter; endogenous in cells
# Sequence (P40763 whole entry): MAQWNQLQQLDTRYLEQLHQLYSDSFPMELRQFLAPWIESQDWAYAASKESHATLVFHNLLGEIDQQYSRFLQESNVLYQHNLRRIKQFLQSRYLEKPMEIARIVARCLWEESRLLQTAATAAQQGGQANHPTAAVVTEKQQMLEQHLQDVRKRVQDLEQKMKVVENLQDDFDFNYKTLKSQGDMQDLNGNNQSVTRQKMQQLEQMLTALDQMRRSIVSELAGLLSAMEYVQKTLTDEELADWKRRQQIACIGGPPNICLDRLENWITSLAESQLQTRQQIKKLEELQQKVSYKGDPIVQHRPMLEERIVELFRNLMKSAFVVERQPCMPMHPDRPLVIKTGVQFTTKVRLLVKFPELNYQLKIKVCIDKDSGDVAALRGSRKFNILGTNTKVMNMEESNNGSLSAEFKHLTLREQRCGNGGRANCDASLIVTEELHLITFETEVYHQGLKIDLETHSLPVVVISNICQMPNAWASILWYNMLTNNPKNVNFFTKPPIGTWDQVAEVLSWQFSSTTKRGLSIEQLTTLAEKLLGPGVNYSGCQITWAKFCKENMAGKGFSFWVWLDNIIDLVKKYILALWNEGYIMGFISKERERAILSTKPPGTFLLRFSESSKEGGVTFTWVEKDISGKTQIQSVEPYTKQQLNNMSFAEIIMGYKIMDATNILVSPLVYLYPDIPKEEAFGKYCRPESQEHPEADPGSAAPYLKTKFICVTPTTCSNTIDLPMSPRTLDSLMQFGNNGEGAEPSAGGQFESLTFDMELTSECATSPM
# assay.notes: STAT3 reporter gene assay (luciferase), LNCaP stable cell line (pSTAT3-TA-luc), IL-6 stimulation
# Assay type: cell-based
# Experimental: 1-1) Experiment on the Inhibition of STAT3 Activity […] The luciferase assay and the cell viability assay were performed respectively with one of the two plates. […] After shaking the plate for 30 minutes, luciferase activities of each well were measured in a PHERAstar™ microplate reader (BMG LABTECH) using a luciferase assay system (Cat No. E1501, Promega). […]
One number for each entry, in µM.

# count of solved cases: 5
>  <molecule>
CS(=O)(=O)Nc1ccc2sc(C(=O)Nc3cc(Cl)cc(Oc4ccc(Cl)cc4Cl)c3)cc2c1 [Example 462]

>  <tested.system>
STAT3 (Homo sapiens, UniProt P40763)

>  <IC50 [µM]>
0.13

$$$$
>  <molecule>
COc1cc(NC(=O)c2cc3ccc(NS(C)(=O)=O)cc3[nH]2)cc(C(C)(C)c2cc(OC)cc(OC(F)(F)F)c2)c1 [Example 13]

>  <tested.system>
STAT3 (Homo sapiens, UniProt P40763)

>  <IC50 [µM]>
0.22

$$$$
>  <molecule>
CCOc1cc(OC(F)(F)F)cc(C(C)(C)c2cc(Br)cc(NC(=O)c3cc4ccc(NS(C)(=O)=O)cc4[nH]3)c2)c1 [Example 22]

>  <tested.system>
STAT3 (Homo sapiens, UniProt P40763)

>  <IC50 [µM]>
0.11

$$$$
>  <molecule>
CS(=O)(=O)Nc1ccc2c(C(=O)Nc3cccc(-c4ccc(F)cc4F)c3)c[nH]c2c1 [Example 275]

>  <tested.system>
STAT3 (Homo sapiens, UniProt P40763)

>  <IC50 [µM]>
3.3

$$$$
>  <molecule>
CS(=O)(=O)Nc1ccc2sc(C(=O)Nc3cc(Cl)cc(Oc4ccc(Cl)c(OC(F)(F)F)c4)c3)cc2c1 [Example 468]

>  <tested.system>
STAT3 (Homo sapiens, UniProt P40763)

>  <IC50 [µM]>
0.17

$$$$

# map each molecule to its IC50
1. CS(=O)(=O)Nc1ccc2sc(C(=O)Nc3cc(Cl)cc(-c4cccs4)c3)cc2c1 [Example 336]
2. COc1ccc(C(C)(C)c2cc(Cl)cc(NC(=O)c3cc4cc(NS(C)(=O)=O)ccc4s3)c2)s1 [Example 177]
3. COc1ccc(C(C)(C)c2cc(Cl)cc(NC(=O)c3cc4cc(NS(C)(=O)=O)ccc4s3)c2)cc1OC [Example 153]
4. CC(C)Oc1cc(OC(F)(F)F)cc(C(C)(C)c2cc(Br)cc(NC(=O)c3cc4cc(OP(=O)(O)O)ccc4s3)c2)c1 [Example 192]

[out]
0.13
0.047
0.15
0.75

Below are 4 molecules. Give each one its IC50.
1. CC(C)Oc1cc(OC(F)(F)F)cc(C(C)(C)c2cc(I)cc(NC(=O)c3sc4ccc(NS(C)(=O)=O)cc4c3I)c2)c1 [Example 214]
2. CS(=O)(=O)Nc1ccc2sc(C(=O)Nc3cc(Cl)cc(-c4cnccn4)c3)cc2c1 [Example 338]
3. COc1cc(OC(F)(F)F)cc(C(C)(C)c2cc(NC(=O)c3cc4cc(NS(C)(=O)=O)ccc4s3)cc(OC(F)F)c2)c1 [Example 41]
4. CC(C)Oc1cc(CN2CCN(S(C)(=O)=O)CC2)cc(C(C)(C)c2cc(Cl)cc(NC(=O)c3cc4cc(NS(C)(=O)=O)ccc4s3)c2)c1 [Example 128]

[out]
[0.17, 0.92, 0.028, 0.27]

----------
# Tested on: LNCaP
# assay.notes: Cell growth inhibition assay, prostate cancer cell line LNCaP (medium with 10 ng/mL IL-6)
# Format: cell-based
# condition: Homo sapiens, medium supplemented with 10 ng/mL of IL-6, 10,000 cells/well
observed.property: IC50 (µM)
Answers are plain numbers, in µM.

Dear colleague, could you please provide IC50 for the molecules listed below?
1. CS(=O)(=O)Nc1ccc2sc(C(=O)Nc3cc(Cl)cc(Oc4cc(F)ccc4F)c3)cc2c1 [Example 448]
2. Cc1c(C(=O)Nc2cccc(-c3ccc(F)cc3F)c2)sc2ccc(NS(C)(=O)=O)cc12 [Example 243]
3. CC(C)(c1cc(Cl)cc(NC(=O)c2cc3cc(NS(C)(=O)=O)c(Cl)cc3s2)c1)c1ccc(C#N)s1 [Example 186]

[out]
[0.35, 6.4, 0.039]

----------
# System: LNCaP
# assay.notes: Cell growth inhibition assay, prostate cancer cell line LNCaP (medium with 10 ng/mL IL-6)
# Assay type: cell-based
# condition: Homo sapiens, medium supplemented with 10 ng/mL of IL-6, 10,000 cells/well
# Method: The inhibitory effects of the compounds of the present invention against the growth of cancer cells were evaluated as shown below. […] Subsequently, the cells were observed under microscope and drug precipitation and particular findings were investigated and recorded. […]
Definition: the class of an entry is the range in class 0 = under 0.06 µM, class 1 = from 0.06 µM up to 0.9 µM, class 2 = 0.9 µM and over that contains its IC50.

Completed entries (count: 5):
>  <compound>
CC(C)(c1cccc(NC(=O)c2cc3cc(NS(C)(=O)=O)ccc3s2)c1)c1ccccc1F [Example 31]

>  <assigned.label>
class 1

$$$$
>  <compound>
CS(=O)(=O)Nc1ccc2cc(C(=O)Nc3cc(-c4ccc(O)nc4)cc(-c4ccc(F)cc4F)c3)[nH]c2c1 [Example 364]

>  <assigned.label>
class 2

$$$$
>  <compound>
CC(C)Oc1cc(OC(F)(F)F)cc(C(C)(C)c2cc(Cl)cc(N(CCN3CCOCC3)C(=O)c3cc4cc(N(CCN5CCOCC5)S(C)(=O)=O)c(F)cc4s3)c2)c1 [Example 218]

>  <assigned.label>
class 2

$$$$
>  <compound>
CN(c1ccc2sc(C(=O)Nc3cc(Cl)cc(C(C)(C)c4ccc(Cl)cc4)c3)cc2c1)S(C)(=O)=O [Example 221]

>  <assigned.label>
class 0

$$$$
>  <compound>
O=C(Nc1cccc(-c2ccc(F)cc2C(F)(F)F)c1)C1Cc2ccc([N+](=O)[O-])cc2N1 (stereo not shown) [Example 229]

>  <assigned.label>
class 2

$$$$

[in] Category lookup for the compound CC(C)(c1cc(F)cc(NC(=O)c2cc3cc(NS(C)(=O)=O)ccc3s2)c1)c1cc(OC(F)(F)F)cc(OC(F)(F)C(F)F)c1 [Example 85]
[out] class 0

[in] Band assignment needed for CC(C)(c1cc(Cl)cc(NC(=O)c2cc3cc(NS(C)(=O)=O)ccc3s2)c1)c1ccc(F)c(F)c1 [Example 162] please.
[out] class 1

[in] Could you tell me which band CS(=O)(=O)Nc1ccc2cc(C(=O)Nc3cccc(S(=O)(=O)c4cccc(Br)c4)c3)[nH]c2c1 [Example 414] belongs to?
[out] class 2

[in] Kindly state the category for this compound: COc1cccc(C(C)(C)c2cc(Cl)cc(NC(=O)c3cc4cc(NS(C)(=O)=O)ccc4s3)c2)c1 [Example 106]
[out] class 1

[in] Please let me know in which category the item COc1cccc(C(C)(C)c2cccc(NC(=O)c3cc4ccc(NS(C)(=O)=O)cc4[nH]3)c2)c1 [Example 12] belongs.
[out] class 2

[in] Which IC50 category applies to COc1ccc(C(C)(C)c2cc(Cl)cc(NC(=O)c3cc4cc(NS(C)(=O)=O)ccc4s3)c2)cc1 [Example 155] here?
[out] class 0

[in] Category of CC(C)(c1ccc(F)cc1)c1cccc(NC(=O)c2cc3ccc(S(C)(=O)=O)cc3[nH]2)c1 [Example 6] , please.
[out] class 2

[in] Into which category would you place CC(C)COc1cc(NC(=O)c2cc3ccc(NS(C)(=O)=O)cc3[nH]2)cc(S(=O)(=O)c2cccc(OC(F)(F)F)c2)c1 [Example 400] ?
[out] class 2

[in] Which category does the recorded IC50 put O=C(Nc1cccc(-c2ccc(F)cc2F)c1)C1Cc2ccc([N+](=O)[O-])cc2N1 (stereo not shown) [Example 231] in?
[out] class 2

[in] Which bin, given its IC50, does CC(C)Oc1cc(OC(F)(F)F)cc(C(C)(C)c2cc(Cl)cc(NC(=O)c3cc4cc(NS(=O)(=O)N5CCOCC5)ccc4s3)c2)c1 [Example 103] occupy?
[out] class 0

[in] Lab note: sort CC(C)(c1cccc(NC(=O)c2cc3ccc(NS(C)(=O)=O)cc3[nH]2)c1)c1cccc(OC(F)(F)F)c1 [Example 8] into the matching IC50 band.
[out] class 1

[in] Which class holds CS(=O)(=O)Nc1ccc2cc(C(=O)Nc3cc(-c4ccsc4)cc(-c4ccc(F)cc4F)c3)[nH]c2c1 [Example 355] ?
[out] class 2

[in] Would you mind sorting CC(C)Oc1cc(N2CCOCC2)cc(C(C)(C)c2cc(Cl)cc(NC(=O)c3cc4cc(NS(C)(=O)=O)ccc4s3)c2)c1 [Example 145] into the appropriate category?
[out] class 0

[in] Into which bin does this compound go? CS(=O)(=O)Nc1ccc2c(C(=O)Nc3cccc(-c4ccc(F)cc4F)c3)c[nH]c2c1 [Example 275]
[out] class 2

[in] Category lookup for the compound CS(=O)(=O)Nc1ccc2cc(C(=O)Nc3cc(C#N)cc(S(=O)(=O)c4cccc(OC(F)(F)F)c4)c3)[nH]c2c1 [Example 399]
[out] class 2
